PROTOCOL_TEXT: Cytotoxicity against BALB mouse 3T3 cells
Type: cell-based
COND: BALB 3T3 cells
PROPERTY_NAME: GI50

Solved entries (count: 4):
molecule=O=[N+]([O-])c1ccc(/C=N/Nc2ncnc3sc4c(c23)CCCC4)cc1 property_name=GI50 value_reported="> 170 µM"
molecule=C=CCOc1cc(/C=N/Nc2ncnc3sc4c(c23)CCCC4)cc(OCC=C)c1Br property_name=GI50 value_reported="< 2 µM"
molecule="O=c1[nH]cc(F)c(=O)[nH]1 [FLUOROURACIL]" property_name=GI50 value_reported="< 3 µM"
molecule=c1ccc(C(=NNc2ncnc3sc4c(c23)CCCC4)c2ccccc2)cc1 property_name=GI50 value_reported="> 170 µM"

Next molecule, GI50 to be filled in.
Input: Give me measured GI50, please, for this molecule: NNc1ncnc2sc3c(c12)CCCC3
Output: < 4.5 µM
